System: SK-MEL-5
test description: NCI tumour cell line growth inhibition, 48 h
Activity calls are given as the source filed them. Cut-off read from the data, not from the text of the source: active = GI50 up to about 1.1 µM and inactive = higher.
reported property: GI50

Would you please look over these solved cases?
If you can, please state the reported GI50 value of `Cc1c(C)c(C)c(-n2c(=O)n(C)c(=O)n2C(C)(C)C)c(C)c1C` .
> 100 µM (inactive)

If you can, please state the reported GI50 value of `Cc1sc2nc(-c3cc([N+](=O)[O-])c(Cl)cc3Cl)c(/C=N/NC(=N)N)n2c1C` .
6.3 µM (inactive)

Quick batch: GI50 for everything below.
1. NS(=O)(=O)c1ccc(NC(=O)CC(=O)Nc2ccc(S(N)(=O)=O)cc2)cc1
2. Cc1cc2[nH]c(=NS(=O)(=O)c3cc(C)c(Cl)cc3S)[nH]c2cc1C

1. > 100 µM (inactive)
2. 32.7 µM (inactive)

Quick batch: GI50 for everything below.
1. CN/N=C(\C)C(CN(C)C)C(c1ccccc1)c1c(O)c2ccccc2oc1=O (configuration not stated)
2. COc1ccc2c(c1)C(N)CC2=O (configuration not stated)
3. CCCc1c(Cl)nc(Cl)nc1Cl
4. COc1ccc2c(c1)CCN=C2Cc1cc(OC)c(OC)cc1CCCl
5. Cn1c(=O)c2[nH]cnc2n(CC(=O)O)c1=O
6. Cc1nc(-n2nc(-c3ccccc3)cc2-c2ccccc2)sc1C(/C=C\c1ccc([N+](=O)[O-])cc1)=N/NC(=S)NN
7. Cc1ccc(-c2cc(-c3ccco3)c(C#N)c(=S)[nH]2)cc1
8. [O-]/[N+](=N\c1ccccc1CO)c1ccccc1CO

> 100 µM (inactive)
> 100 µM (inactive)
0.0594 µM (active)
17.5 µM (inactive)
> 100 µM (inactive)
27.7 µM (inactive)
22.8 µM (inactive)
> 100 µM (inactive)

###

Tested on: M14
test description: NCI tumour cell line growth inhibition, 48 h
Active and inactive are the calls of the source. Cut-off read from the data, not from the text of the source: active = GI50 up to about 1.1 µM and inactive = higher. Where a SMILES comes first, the peptide text is derived from it. [ ]: non-standard residue; d: D form. 2Nal = N[CH](Cc1ccc2ccccc2c1)C(=O)O
Form entry, call: pick from active, inactive

Some entries whose results are on file:
Recorded test outcome, item CC(CO)(CO)N1C(=O)C2C3c4ccccc4C(c4ccccc43)C2C1=O (configuration not stated)
inactive

Recorded test outcome, item CC(C)(C)c1cc(C(O)(C(F)(F)F)C(F)(F)F)c2c(c1)C(C(F)(F)F)(C(F)(F)F)OC(C(C)(C)C)N2 (configuration not stated)
inactive

Recorded test outcome, item `Cc1[nH]c2ccccc2c1C1=CC(=O)N(c2ccccc2)C1=O`
inactive

Recorded test outcome, item `COc1cc2c3c(c1)c1cc(OC)c(OC)cc1c[n+]3CC2`
inactive

Recorded test outcome, item `CNC(=O)OCc1c(COC(=O)NC)c(-c2ccc(Cl)c(Cl)c2)n2c1SCC2`
inactive

Recorded test outcome, item CC(NC(=O)C(N)Cc1ccccc1)C(=O)NC(Cc1ccc(O)cc1)C(=O)NC(Cc1c[nH]c2ccccc12)C(=O)NC(CCCCN)C(=O)NC(C(=O)NC(C)C(=O)NC(Cc1ccc2ccccc2c1)C(N)=O)C(C)C (configuration not stated) (H-FAYWKVA[2Nal]-NH2; configuration not given here)
inactive

Recorded test outcome, item CC(=O)O[C@H]1C(=O)[C@]2(C)[C@@H](OC(=O)OCC(O)CO)C[C@H]3OC[C@@]3(OC(C)=O)[C@H]2[C@H](OC(=O)c2ccccc2)[C@]2(O)C[C@H](OC(=O)[C@H](O)[C@@H](NC(=O)c3ccccc3)c3ccccc3)C(C)=C1C2(C)C (some centres not stated) [PACLITAXEL CERIBATE]
active

Recorded test outcome, item `c1cc2c(cc1C(N1CCNCC1)N1CCNCC1)OCO2`
inactive

Recorded test outcome, item `O=[N+]([O-])C(C(Cl)=C(Cl)Cl)=C(n1cncn1)n1cncn1`
inactive

Recorded test outcome, item `CCN(CC)C(=S)/N=C(\SC(=S)N(CC)CC)c1ccccc1`
inactive

Others:
Recorded test outcome, item `Cc1cc(Cl)ccc1NC(=O)C(=O)Cc1ccc([N+](=O)[O-])c([N+](=O)[O-])c1CC(=O)C(=O)Nc1ccc(Cl)cc1C`
inactive

Recorded test outcome, item COC(=O)C(=O)C(C(=O)C=C(C)C)C(=O)C(=O)Nc1ccc(C)cc1C (configuration not stated)
inactive

Recorded test outcome, item `C=C(C)CCN[Si](c1ccccc1)(c1ccccc1)C(C)(C)C`
inactive

Recorded test outcome, item `Cc1cc2[nH]c(=NS(=O)(=O)c3cc(C)c(Cl)cc3S)[nH]c2cc1C`
inactive

Recorded test outcome, item COC(=O)C(Cc1cc(OC)c(OC)c(OC)c1)c1ccc(OC)cc1 (configuration not stated)
inactive

Recorded test outcome, item CC(=O)OCC1OC(n2c3c(c(-c4ccc(Cl)cc4)c(C#N)c2=S)C(=O)CC(C)(C)C3)C(OC(C)=O)C(OC(C)=O)C1OC(C)=O (configuration not stated)
inactive

Recorded test outcome, item CC(=O)CC(OC(C)=O)C1=CCC2C(CC1C)OC(=O)C2C (configuration not stated)
inactive

###

Tested on: OVCAR-3
test description: NCI tumour cell line growth inhibition, 48 h
Calls of active or inactive are those of the source. Rule as the data show it: active = GI50 up to about 1.1 µM and inactive = higher.
Form entry, call: pick from Yes = active, No = inactive

Recorded test outcome, item `CCOC(=O)Cc1nc2sc(S(N)(=O)=O)nn2c1Br`
No

Recorded test outcome, item `CCCc1c(Cl)nc(Cl)nc1Cl`
Yes

Others:
Recorded test outcome, item `CC1CC[P+](c2ccccc2)(c2ccccc2)CC1`
No

Recorded test outcome, item `Cc1cc(C)n(C(C)(C(=O)Cc2ccccc2)n2nc(C)cc2C)n1`
No

###

Test system: UO-31
test description: NCI tumour cell line growth inhibition, 48 h
Activity calls are given as the source filed them. Cut-off read from the data, not from the text of the source: active = GI50 up to about 1.1 µM and inactive = higher.
reported property: GI50

Would you please look over these solved cases?
If you can, please state the reported GI50 value of CC(NNC(=O)c1cc[n+]([BH2-]C#N)cc1)c1cccc(C(F)(F)F)c1 (stereo not given) .
42 µM (inactive)

If you can, please state the reported GI50 value of `C=C(C)CCN(C(=O)OC(C)(C)C)c1cc(C(C)C)co1` .
> 100 µM (inactive)

If you can, please state the reported GI50 value of `Cc1nc(-n2nc(-c3ccccc3)cc2-c2ccccc2)sc1C(/C=C\c1ccc([N+](=O)[O-])cc1)=N/NC(=S)NN` .
> 43.9 µM (inactive)

Quick batch: GI50 for everything below.
1. COc1c(OC)c(OC)c(C(=O)/C=C/c2ccccc2)c(OC)c1OC
2. CC(CCCC1SCC2NC(=O)NC21)C(=O)O (stereo not given)

1: 10.5 µM (inactive); 2: > 100 µM (inactive)

###

System: NCI/ADR-RES
test description: NCI tumour cell line growth inhibition, 48 h
Calls of active or inactive are those of the source. Rule as the data show it: active = GI50 up to about 1.1 µM and inactive = higher.
Form entry, call: pick from 1 for active, 0 for inactive

Recorded test outcome, item `C#C[C@@]1(O)CCCC2=CC3(CC[C@]21C)SCCS3`
0

Recorded test outcome, item `CCc1n[nH]c(=O)n1CCCCCCCCCCCCn1c(CC)n[nH]c1=O`
0

Recorded test outcome, item `COC(=O)c1ccccc1/C=C1\Cc2c(C)c3c(c(C)c2C1=O)CCC3`
0

Recorded test outcome, item CC1=NNC(=O)C1C1(C(=O)O)CC(c2c[nH]c3ccccc23)=NC(=S)N1 (stereo not given)
0

Recorded test outcome, item CN/N=C(\C)C(CN(C)C)C(c1ccccc1)c1c(O)c2ccccc2oc1=O (stereo not given)
0

Recorded test outcome, item `Cc1cc2[nH]c(=NS(=O)(=O)c3cc(C)c(Cl)cc3S)[nH]c2cc1C`
0

Recorded test outcome, item `CN(C)C(=O)C1CCN(Cc2c[nH]c3ccccc23)CC1`
0

Recorded test outcome, item `CCOC(=O)CC(=O)CSc1c(-c2ccccc2)c(=O)n(-c2ccccc2)c(=S)n1-c1ccccc1`
0

Recorded test outcome, item `OCCN(C1=NCCN1)/[N+](=C/c1ccc(Cl)cc1)[CH-]c1ccc(Cl)cc1`
0

Recorded test outcome, item `CCOC(=O)c1ccc(N(CCOS(=O)(=O)c2ccc(C)cc2)CCOS(=O)(=O)c2ccc(C)cc2)cc1`
0

Recorded test outcome, item `Cc1ccc(/N=N/c2c(O)ccc3ccccc23)c(C)c1`
0

Recorded test outcome, item `C=C(C)CCN(C(=O)OC(C)(C)C)c1cc(C(C)C)co1`
0

Recorded test outcome, item `COc1ccc(C(=O)N/N=C2\C(=O)c3c(C)cc(C)cc3CC2(C)C)cc1`
0

Recorded test outcome, item `CCCC(=O)Nc1cc(C(=O)N2C[C@@H]3C[C@]34C2=CC(=O)c2[nH]cc(C)c24)n(COC)c1`
0

###

Test system: KM12
test description: NCI tumour cell line growth inhibition, 48 h
Calls of active or inactive are those of the source. No stated cut-off is given here; in the data, active = GI50 up to about 1.1 µM and inactive = higher.
Form entry, call: pick from active, inactive

Some entries whose results are on file:
Recorded test outcome, item COc1cccc2c1C(=O)c1c(O)c3c(c(O)c1C2=O)C[C@H](O)C[C@@H]3OC1CC(N)C(O)C(C)O1 (stereo not given in full)
active

Recorded test outcome, item CC(OC(C)(C)C)[C@H](NC(=O)OCC(Cl)(Cl)Cl)C(=O)O (stereo not given in full)
inactive

Recorded test outcome, item `Cc1ccc(S(=O)(=O)NC(=O)Nc2ccc(S(N)(=O)=O)cc2S(N)(=O)=O)cc1`
inactive

Recorded test outcome, item `O=c1[nH]n(Cc2ccccc2Cl)c2ccc([N+](=O)[O-])cc12`
inactive

Recorded test outcome, item `COc1cc(CNc2nc3c(N)cc(C(F)(F)F)cc3nc2-c2ccccc2)cc(OC)c1OC`
inactive

Attention now turns to another entry.
Recorded test outcome, item `CC[n+]1c(/C=C/c2ccc(N(CCCl)CCCl)cc2)ccc2cc(Br)ccc21`
inactive
